Just for reference, the supplement of paper PMC10883282 is where these values come from.

- Test system: KHOS-NP
- Method notes: relative viability vs DMSO control (72 h) (fraction); higher = more viable cells
- Condition parameters: 0.00017 µM
Where a name gives a salt, the structure may show the parent alone.
I'd be grateful if you could share measured relative viability for these entries.
Give bare numbers.

Past entries and their recorded results:
Input line: Looking for the measured relative viability of O=C(Cc1ccc(-c2ccc(OCCN3CCOCC3)cc2)cn1)NCc1ccccc1 , can you help?
Output line: 1.11

Input line: Looking for the measured relative viability of CNC(=O)c1ccc(-c2cnc3ncc(Cc4ccc5ncccc5c4)n3n2)cc1F , can you help?
Output line: 1.1

Input line: Looking for the measured relative viability of COc1cccc2c1C(=O)c1c(O)c3c(c(O)c1C2=O)C[C@@](O)(C(=O)CO)C[C@@H]3O[C@H]1C[C@H](N)[C@H](O)[C@H](C)O1 [Doxorubicin Hydrochloride] , can you help?
Output line: 1.09

Return reported relative viability values for all items listed beneath this line.
1. CC1(C)CNc2cc(NC(=O)c3cccnc3NCc3ccncc3)ccc21
2. CC(C)(C)c1cc(NC(=O)Nc2ccc(-c3cn4c(n3)sc3cc(OCCN5CCOCC5)ccc34)cc2)no1

Output line:
1. 1.03
2. 1.13
